- runDescription: Cytotoxic concentration against wild type human immunodeficiency virus type 1 […] strain
- assayConditions: Human immunodeficiency virus 1
propertyMeasured: CC50 (µM)
Write it as a number; the unit µM goes unstated.

Worked examples, 2 molecules total:
Q) If you can, please state the reported CC50 value of Cc1ccnc2c1NC(=O)c1cccnc1N2C1CC1 [NEVIRAPINE] .
A) 20

Q) If you can, please state the reported CC50 value of Cc1cc(CC(C)C#N)cc(C)c1Nc1ccnc(Nc2ccc(C#N)cc2)n1 (configuration not stated) .
A) 1

Continuing:
Q) If you can, please state the reported CC50 value of Cc1cc(/C=C/C#N)cc(C)c1Nc1ccnc(Nc2ccc(C#N)cc2)n1 [RILPIVIRINE] .
A) 30

Q) If you can, please state the reported CC50 value of `Cc1cc(COCCC#N)cc(C)c1Nc1ccnc(Nc2ccc(C#N)cc2)n1` .
A) 10

Q) If you can, please state the reported CC50 value of `Cc1cc(-c2ccc(C#N)o2)cc(C)c1Nc1ccnc(Nc2ccc(C#N)cc2)n1` .
A) 10

Q) If you can, please state the reported CC50 value of `Cc1cc(CCC#N)cc(C)c1Nc1ccnc(Nc2ccc(C#N)cc2)n1` .
A) 3

Q) If you can, please state the reported CC50 value of `C/C(=C\C#N)c1cc(C)c(Nc2ccnc(Nc3ccc(C#N)cc3)n2)c(C)c1` .
A) 30

Q) If you can, please state the reported CC50 value of `Cc1cc(/C=C\C#N)cc(C)c1Nc1ccnc(Nc2ccc(C#N)cc2)n1` .
A) 30

Q) If you can, please state the reported CC50 value of `C/C(C#N)=C\c1cc(C)c(Nc2ccnc(Nc3ccc(C#N)cc3)n2)c(C)c1` .
A) 20

Q) If you can, please state the reported CC50 value of `Cc1cc(CC#N)cc(C)c1Nc1ccnc(Nc2ccc(C#N)cc2)n1` .
A) 10

Q) If you can, please state the reported CC50 value of `Cc1cc(/C(Cl)=C/C#N)cc(C)c1Nc1ccnc(Nc2ccc(C#N)cc2)n1` .
A) 30

Q) If you can, please state the reported CC50 value of `Cc1cc(/C=C/CC#N)cc(C)c1Nc1ccnc(Nc2ccc(C#N)cc2)n1` .
A) 10

Q) If you can, please state the reported CC50 value of `Cc1cc(/C=C(/C#N)CC#N)cc(C)c1Nc1ccnc(Nc2ccc(C#N)cc2)n1` .
A) 2

Q) If you can, please state the reported CC50 value of `Cc1cc(C#N)cc(C)c1Nc1ccnc(Nc2ccc(C#N)cc2)n1` .
A) 5

Q) If you can, please state the reported CC50 value of O=C1Nc2ccc(Cl)cc2[C@@](C#CC2CC2)(C(F)(F)F)O1 [EFAVIRENZ] .
A) 10

Q) If you can, please state the reported CC50 value of `C/C(C#N)=C/c1cc(C)c(Nc2ccnc(Nc3ccc(C#N)cc3)n2)c(C)c1` .
A) 3

----------
- Tested on: Human immunodeficiency virus 1
- runDescription: Effective concentration against human immunodeficiency virus type 1 mutated at 188L
- Assay type: functional, organism-based
Criterion: EC50 strictly under 0.03 µM. Met: Criterion met. Not met: Criterion not met.

Below are worked cases with known answers.
Q) Find out if reported EC50 for `Cc1cc(/C=C\C#N)cc(C)c1Nc1ccnc(Nc2ccc(C#N)cc2)n1` is less than 0.03 µM
A) Criterion not met

Q) Find out if reported EC50 for `Cc1cc(/C=C/CC#N)cc(C)c1Nc1ccnc(Nc2ccc(C#N)cc2)n1` is less than 0.03 µM
A) Criterion met

Q) Find out if reported EC50 for `Cc1cc(/C=C(/C#N)CC#N)cc(C)c1Nc1ccnc(Nc2ccc(C#N)cc2)n1` is less than 0.03 µM
A) Criterion not met

Now examine the next entry.
Q) Find out if reported EC50 for Cc1cc(CC(C)C#N)cc(C)c1Nc1ccnc(Nc2ccc(C#N)cc2)n1 (configuration not stated) is less than 0.03 µM
A) Criterion not met

Source: ChEMBL document CHEMBL1142736
